# TGI values compiled below
Tested on: MDA-N
Assay: NCI tumour cell line growth inhibition, 48 h

CC(=O)OC/C=C\Cn1nc(Br)c(=O)[nH]c1=O = 32 µM

Then this molecule:
Quick one: TGI for `CC1=CC(=C(c2ccc(N)cc2)c2ccc(N)cc2)C=CC1=N` ?
> 40.9 µM

###

System: HOP-62 NSCLC
Experiment: NCI tumour cell line growth inhibition, 48 h
READOUT_LABEL: TGI

CC(C)NC(=O)OCc1c(COC(=O)NC(C)C)c(-c2cc[n+](COC(=O)C(C)(C)C)cc2)n2c1CCC2 = > 100 µM
Cc1ccc2ncnc(N(CC(C)C)CC(C)C)c2c1 = 31.2 µM
COc1ccc2cc(C(=O)O)ccc2c1OC = > 100 µM
CCN(CC)CCOc1ccccc1/C=C/c1noc2ccccc12 = 31.3 µM
COc1c(C(=O)c2ccc([N+](=O)[O-])cc2)cc(C(C)(C)C)cc1C(C)(C)C = > 100 µM
O=c1oc2ccccc2c(O)c1/C=N/C(=S)NCCc1ccccc1 = > 100 µM

Then this molecule:
Quick one: TGI for `CC(=O)O[C@H]1/C(=C/c2ccncc2)C[C@H]2[C@@H]3CC=C4C[C@@H](N5CCCC5)CC[C@]4(C)[C@H]3CC[C@]12C` ?
30.4 µM
